Every entry's value here was drawn from patent US20240352111A1.

Recorded Artemin Binding Response (nm) by entry
TESTED_ON: T1, hArtemin-MMH (human)
T1 construct: also called hARTN.mmh; hARTN (A108-G220).mmh
T1 chain: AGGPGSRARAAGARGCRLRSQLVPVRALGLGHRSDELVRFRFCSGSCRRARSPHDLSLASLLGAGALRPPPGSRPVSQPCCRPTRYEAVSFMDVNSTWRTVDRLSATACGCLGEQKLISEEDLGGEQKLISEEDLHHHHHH
METHOD_DESCRIPTION: BLI (Octet HTX), mAb captured on AHC tips, artemin at 30 nM, 25 C
Provide the reading as a plain figure in nm.

• H4H33349P (antibody, human IgG4 S228P, kappa, V domains shown, Fully human antibody; also called Artemin mAb; anti-ARTN antibody) VH: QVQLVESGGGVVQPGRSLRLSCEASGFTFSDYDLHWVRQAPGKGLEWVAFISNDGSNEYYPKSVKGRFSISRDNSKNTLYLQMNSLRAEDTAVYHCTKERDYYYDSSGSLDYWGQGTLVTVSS VL: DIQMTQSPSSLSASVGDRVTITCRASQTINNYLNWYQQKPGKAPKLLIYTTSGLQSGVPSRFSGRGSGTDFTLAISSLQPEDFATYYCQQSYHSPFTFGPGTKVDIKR = 0.11
• H4H33331P (antibody, human IgG4 S228P, kappa, V domains shown, Fully human antibody (human variable and constant domains) from a VELOCIMMUNE mouse; also called Artemin mAb; anti-ARTN antibody) VH: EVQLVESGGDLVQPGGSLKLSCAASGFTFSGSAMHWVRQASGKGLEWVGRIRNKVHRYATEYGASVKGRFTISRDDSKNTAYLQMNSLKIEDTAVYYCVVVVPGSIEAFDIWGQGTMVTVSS VL: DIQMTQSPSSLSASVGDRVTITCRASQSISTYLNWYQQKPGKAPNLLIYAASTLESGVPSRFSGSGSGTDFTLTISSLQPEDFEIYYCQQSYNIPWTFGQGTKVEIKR = 0.11
• H4H33335P (antibody, human IgG4 S228P, kappa, V domains shown, Fully human antibody; also called Artemin mAb; anti-ARTN antibody) VH: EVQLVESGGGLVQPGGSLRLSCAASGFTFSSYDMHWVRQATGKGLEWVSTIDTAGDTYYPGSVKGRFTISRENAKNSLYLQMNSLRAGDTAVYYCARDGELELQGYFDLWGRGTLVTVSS VL: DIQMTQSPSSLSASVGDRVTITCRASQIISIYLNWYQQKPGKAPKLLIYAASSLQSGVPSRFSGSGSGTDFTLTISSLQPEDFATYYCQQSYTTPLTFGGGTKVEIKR = 0.11

Lab note: next binder to report on.
Task: Entry H4H33336P (antibody, human IgG4 S228P, kappa, V domains shown, Fully human antibody; also called Artemin mAb; anti-ARTN antibody) VH: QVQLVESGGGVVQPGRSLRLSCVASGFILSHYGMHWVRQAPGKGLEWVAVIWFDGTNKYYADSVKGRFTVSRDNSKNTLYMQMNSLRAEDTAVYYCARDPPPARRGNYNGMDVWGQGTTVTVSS VL: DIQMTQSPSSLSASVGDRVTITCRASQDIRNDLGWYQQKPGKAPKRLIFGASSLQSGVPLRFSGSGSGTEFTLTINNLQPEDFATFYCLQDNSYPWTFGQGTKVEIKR : reported Artemin Binding Response (nm) = ?
Output: 0.12
